Values of AC50 reported for Adenosine receptor A1 (Homo sapiens) appear below.

Note to self: AC50 of COc1cc(OC)c(C(=O)CCCN2CCCC2)c(OC)c1 [BUFLOMEDIL] with Adenosine receptor A1 (Homo sapiens) was > 30 µM

Note to self: AC50 of C[C@H]1C[C@H]2[C@@H]3CCC4=CC(=O)C=C[C@]4(C)[C@@]3(Cl)[C@@H](O)C[C@]2(C)[C@@]1(O)C(=O)CO [BECLOMETHASONE] with Adenosine receptor A1 (Homo sapiens) was > 30 µM

Note to self: AC50 of Clc1ccc(C(Cn2ccnc2)OCc2ccc(Sc3ccccc3)cc2)c(Cl)c1 (configuration not stated) [FENTICONAZOLE] with Adenosine receptor A1 (Homo sapiens) was > 30 µM

Note to self: AC50 of CCN(CC)CCOC(=O)c1ccc(N)cc1Cl [CHLOROPROCAINE] with Adenosine receptor A1 (Homo sapiens) was > 30 µM

Note to self: AC50 of Cc1cc2nc3c(=O)[nH]c(=O)nc-3n(C[C@H](O)[C@H](O)[C@H](O)COP(=O)(O)O)c2cc1C [RIBOFLAVIN 5'-PHOSPHATE] with Adenosine receptor A1 (Homo sapiens) was > 30 µM

Note to self: AC50 of CNC[C@H](O)c1cccc(O)c1 [PHENYLEPHRINE] with Adenosine receptor A1 (Homo sapiens) was > 30 µM
